Cited source: ChEMBL document CHEMBL4706642

target: Acetylcholinesterase (Electrophorus electricus)
Sequence (O42275 whole entry): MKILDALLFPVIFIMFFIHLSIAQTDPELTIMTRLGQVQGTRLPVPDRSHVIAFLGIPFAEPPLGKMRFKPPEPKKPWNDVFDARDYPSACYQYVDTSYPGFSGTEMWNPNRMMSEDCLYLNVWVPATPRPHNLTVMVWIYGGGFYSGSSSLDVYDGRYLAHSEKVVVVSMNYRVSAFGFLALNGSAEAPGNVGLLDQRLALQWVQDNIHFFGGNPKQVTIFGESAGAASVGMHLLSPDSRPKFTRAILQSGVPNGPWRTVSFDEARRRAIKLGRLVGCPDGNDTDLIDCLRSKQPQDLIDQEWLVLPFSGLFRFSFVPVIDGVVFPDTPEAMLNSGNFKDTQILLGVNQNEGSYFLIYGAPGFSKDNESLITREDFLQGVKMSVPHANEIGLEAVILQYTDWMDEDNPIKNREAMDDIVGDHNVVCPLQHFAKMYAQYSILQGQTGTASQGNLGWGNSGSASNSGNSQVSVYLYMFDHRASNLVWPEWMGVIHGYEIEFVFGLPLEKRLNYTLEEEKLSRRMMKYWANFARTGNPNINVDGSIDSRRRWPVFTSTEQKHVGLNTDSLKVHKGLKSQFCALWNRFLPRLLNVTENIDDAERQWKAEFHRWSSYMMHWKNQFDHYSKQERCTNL
Measurement Name: Kd (nM)

> print(dat)
                                   molecule  reported.value
1  COc1cc(CNC(=O)CCCCCCNc2c3c(nc4cc(Cl)ccc24)CC2C=C(C)CC3C2)ccc1O (stereo unspecified)            3.59

----------
biological target: Beta-secretase 1 (Homo sapiens); assay: Inhibition of recombinant human BACE-1 at 1 uM using methoxycoumarin-Ser-Glu-Val-Asn-Leu-Asp-Ala-Glu-Phe-Lys-dinitrophenyl as substrate preincubated for 1 hr followed by substrate addition and measured after 15 mins by fluorescence based assay relative to control; settings: time 75.0 min
Activity calls are given as the source filed them. No cut-off for these calls is given here.
Measurement Name: inhibition

> print(dat)
                                    compound  measurement.name  reported.value
 1  COc1cc(CNC(=O)c2ccc(CNc3c4c(nc5cc(Cl)ccc35)CC3C=C(C)CC4C3)cc2)ccc1O (stereo not given)        inhibition        inactive
 2  COc1cc(CNC(=O)CCCCCNc2c3c(nc4cc(Cl)ccc24)CC2C=C(C)CC3C2)ccc1O (stereo not given)        inhibition           34.3%
 3  COc1cc(CNC(=O)CCCC/C=C/CNc2c3c(nc4cc(Cl)ccc24)CC2C=C(C)CC3C2)ccc1O (stereo not given)        inhibition        inactive
 4  COc1cc(CNC(=O)CCCC/C=C/CCCNc2c3c(nc4cc(Cl)ccc24)CC2C=C(C)CC3C2)ccc1O (stereo not given)        inhibition           21.6%
 5  COc1cc(CNC(=O)CCCCNc2c3c(nc4cc(Cl)ccc24)CC2C=C(C)CC3C2)ccc1O (stereo not given)        inhibition           55.6%
 6  COc1cc(CNC(=O)CCCCCCNc2c3c(nc4cc(Cl)ccc24)CC2C=C(C)CC3C2)ccc1O (stereo not given)        inhibition            7.4%
 7  COc1cc(CNC(=O)Cc2cn(CCCCC3=CC4Cc5nc6cc(Cl)ccc6c(N)c5C(C3)C4)nn2)ccc1O (stereo not given)        inhibition        inactive
 8        COc1cc(CNC(=O)CCCC/C=C/C(C)C)ccc1O        inhibition        inactive
 9  COc1cc(CNC(=O)CCCCCCCNc2c3c(nc4cc(Cl)ccc24)CC2C=C(C)CC3C2)ccc1O (stereo not given)        inhibition            3.6%
10  COc1cc(CNC(=O)CCCCCCCCNc2c3c(nc4cc(Cl)ccc24)CC2C=C(C)CC3C2)ccc1O (stereo not given)        inhibition           23.7%
